test-details: Selectivity index, ratio of IC50 for cytotoxicity against human HFF cells to IC50 for antiplasmodial activity against chloroquine-sensitive Plasmodium falciparum 3D7
Format: toxicity, cell-based
settings: read-out: Ratio IC50
measure: selectivity ratio

Query :: What does the record list as selectivity ratio for Cc1ncc(Cn2cc(CCOC(=O)c3cccc(Cl)c3)nn2)c(N)n1 ?
Result :: > 3.2
